Target: T1, CD101 (human, UniProt Q93033 21-1021)
T1 construct: whole, on cells; The Jurkat line was made with another lentivirus (PSE5799, human CD101); also called human CD101; 293F-CD101
T1 sequence (looked up): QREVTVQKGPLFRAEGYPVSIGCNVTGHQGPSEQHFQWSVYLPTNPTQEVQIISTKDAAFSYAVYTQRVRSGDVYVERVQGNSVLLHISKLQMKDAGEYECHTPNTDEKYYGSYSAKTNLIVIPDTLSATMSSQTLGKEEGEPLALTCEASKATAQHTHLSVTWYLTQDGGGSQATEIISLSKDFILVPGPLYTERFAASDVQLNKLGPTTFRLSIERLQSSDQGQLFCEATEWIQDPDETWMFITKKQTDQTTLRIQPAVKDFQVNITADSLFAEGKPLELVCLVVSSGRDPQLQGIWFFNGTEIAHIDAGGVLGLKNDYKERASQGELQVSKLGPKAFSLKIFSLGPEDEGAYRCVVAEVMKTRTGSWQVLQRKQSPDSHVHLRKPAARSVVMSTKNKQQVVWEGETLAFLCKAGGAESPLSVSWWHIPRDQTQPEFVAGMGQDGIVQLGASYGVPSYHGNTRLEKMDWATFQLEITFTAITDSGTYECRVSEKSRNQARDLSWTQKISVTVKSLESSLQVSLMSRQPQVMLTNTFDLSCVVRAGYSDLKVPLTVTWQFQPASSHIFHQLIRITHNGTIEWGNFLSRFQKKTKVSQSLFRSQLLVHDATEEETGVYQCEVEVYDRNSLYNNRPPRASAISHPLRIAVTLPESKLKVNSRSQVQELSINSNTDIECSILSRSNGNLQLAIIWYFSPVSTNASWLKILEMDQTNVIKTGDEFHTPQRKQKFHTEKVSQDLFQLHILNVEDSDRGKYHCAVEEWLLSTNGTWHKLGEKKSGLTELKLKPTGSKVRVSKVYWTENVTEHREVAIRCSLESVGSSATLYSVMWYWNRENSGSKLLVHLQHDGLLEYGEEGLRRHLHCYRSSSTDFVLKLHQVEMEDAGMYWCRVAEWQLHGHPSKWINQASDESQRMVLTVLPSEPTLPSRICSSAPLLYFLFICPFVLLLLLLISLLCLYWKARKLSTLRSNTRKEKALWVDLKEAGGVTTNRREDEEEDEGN
Assay: FACS, culture supernatant on 293F-CD101 cells
REPORTED_PROPERTY: binding result

Recorded results for 4 binders are shown here.
BINDER	binding result
humanized antibody VH4-VL3 (antibody, V domains shown, IgG1, kappa; tested as culture supernatant; also called VH-HM4 / VL-HM3) VH: EVQLVQSGAEVKKPGASVKVSCKASGFTLTEYTIHWVKQAPGQGLEWIGWFYPGSGGIKYNEKFQDRVTLTADESSSTVYMELSRLRSDDTAVYFCARHAFYRNYEYFDVWGTGTMVTVSS VL: DIVMTQAPFSSPVTLGTPASISCRSSKSLLHSNGITYLYWYQQRPGQSPRLLIYQMSNLASGVPDRFSSSGSGTDFTLKISRVEAEDVGVYYCAQNLELPLTFGAGTKLEIK	binds
humanized antibody VH1-VL3 (antibody, V domains shown, IgG1, kappa; tested as culture supernatant; also called VH-HM1 / VL-HM3) VH: EVQLVQSGAEVKKPGASVKVSCKASGFTLTEYTIHWVRQAPGQGLEWIGWFYPGSGGIKYNEKFQDRVTLTADESISTVYMELSRLRSDDTAVYFCARHAFYRNYEYFDVWGTGTMVTVSS VL: DIVMTQAPFSSPVTLGTPASISCRSSKSLLHSNGITYLYWYQQRPGQSPRLLIYQMSNLASGVPDRFSSSGSGTDFTLKISRVEAEDVGVYYCAQNLELPLTFGAGTKLEIK	binds
humanized antibody VH2-VL2 (antibody, V domains shown, IgG1, kappa; tested as culture supernatant; also called VH-HM2 / VL-HM2) VH: EVQLVQSGAEVKKPGASVKVSCKASGFTLTEYTIHWVRQAPGQGLEWIGWFYPGSGGIKYNEKFQDRVTLTADESASTVYMELSSLRSEDTAVYFCARHAFYRNYEYFDVWGTGTMVTVSS VL: DIVMTQAPLSLPVTPGTPASISCRSSKSLLHSNGITYLYWYLQKPGQSPQLLIYQMSNLASGVPDRFSSSGSGTDFTLKISRVEAEDVGVYYCAQNLELPLTFGAGTKLEIK	binds
humanized antibody VH2-VL1 (antibody, V domains shown, IgG1, kappa; tested as culture supernatant; also called VH-HM2 / VL-HM1) VH: EVQLVQSGAEVKKPGASVKVSCKASGFTLTEYTIHWVRQAPGQGLEWIGWFYPGSGGIKYNEKFQDRVTLTADESASTVYMELSSLRSEDTAVYFCARHAFYRNYEYFDVWGTGTMVTVSS VL: DIVMTQAPFSLPVTPGTPASISCRSSKSLLHSNGITYLYWYLQKPGQSPQLLIYQMSNLASGVPDRFSSSGSGTDFTLKISRVEAEDVGVYYCAQNLELPLTFGAGTKLEIK	binds

Entry humanized antibody VH4-VL1 (antibody, V domains shown, IgG1, kappa; tested as culture supernatant; also called VH-HM4 / VL-HM1) VH: EVQLVQSGAEVKKPGASVKVSCKASGFTLTEYTIHWVKQAPGQGLEWIGWFYPGSGGIKYNEKFQDRVTLTADESSSTVYMELSRLRSDDTAVYFCARHAFYRNYEYFDVWGTGTMVTVSS VL: DIVMTQAPFSLPVTPGTPASISCRSSKSLLHSNGITYLYWYLQKPGQSPQLLIYQMSNLASGVPDRFSSSGSGTDFTLKISRVEAEDVGVYYCAQNLELPLTFGAGTKLEIK ; binding result = binds

Reported binding result of humanized antibody VH4-VL2 (antibody, V domains shown, IgG1, kappa; tested as culture supernatant; also called VH-HM4 / VL-HM2) VH: EVQLVQSGAEVKKPGASVKVSCKASGFTLTEYTIHWVKQAPGQGLEWIGWFYPGSGGIKYNEKFQDRVTLTADESSSTVYMELSRLRSDDTAVYFCARHAFYRNYEYFDVWGTGTMVTVSS VL: DIVMTQAPLSLPVTPGTPASISCRSSKSLLHSNGITYLYWYLQKPGQSPQLLIYQMSNLASGVPDRFSSSGSGTDFTLKISRVEAEDVGVYYCAQNLELPLTFGAGTKLEIK : binds

Reported binding result of humanized antibody VH3-VL3 (antibody, V domains shown, IgG1, kappa; tested as culture supernatant; also called VH-HM3 / VL-HM3) VH: EVQLVQSGAEVKKPGASVKVSCKASGFTLTEYTIHWVRQAPGQGLEWIGWFYPGSGGIKYNEKFQDRVTLTADTSISTVYMELSRLRSDDTVVYFCARHAFYRNYEYFDVWGTGTMVTVSS VL: DIVMTQAPFSSPVTLGTPASISCRSSKSLLHSNGITYLYWYQQRPGQSPRLLIYQMSNLASGVPDRFSSSGSGTDFTLKISRVEAEDVGVYYCAQNLELPLTFGAGTKLEIK : binds

Looking up humanized antibody VH2-VL3 (antibody, V domains shown, IgG1, kappa; tested as culture supernatant; also called VH-HM2 / VL-HM3) VH: EVQLVQSGAEVKKPGASVKVSCKASGFTLTEYTIHWVRQAPGQGLEWIGWFYPGSGGIKYNEKFQDRVTLTADESASTVYMELSSLRSEDTAVYFCARHAFYRNYEYFDVWGTGTMVTVSS VL: DIVMTQAPFSSPVTLGTPASISCRSSKSLLHSNGITYLYWYQQRPGQSPRLLIYQMSNLASGVPDRFSSSGSGTDFTLKISRVEAEDVGVYYCAQNLELPLTFGAGTKLEIK , I found its binding result recorded as binds
